Target: T1, human ferroportin (SLC40A1) fused in frame with GFP, stably expressed in HEK293 cells (human, UniProt Q9NP59 1-571)
T1 sequence (looked up): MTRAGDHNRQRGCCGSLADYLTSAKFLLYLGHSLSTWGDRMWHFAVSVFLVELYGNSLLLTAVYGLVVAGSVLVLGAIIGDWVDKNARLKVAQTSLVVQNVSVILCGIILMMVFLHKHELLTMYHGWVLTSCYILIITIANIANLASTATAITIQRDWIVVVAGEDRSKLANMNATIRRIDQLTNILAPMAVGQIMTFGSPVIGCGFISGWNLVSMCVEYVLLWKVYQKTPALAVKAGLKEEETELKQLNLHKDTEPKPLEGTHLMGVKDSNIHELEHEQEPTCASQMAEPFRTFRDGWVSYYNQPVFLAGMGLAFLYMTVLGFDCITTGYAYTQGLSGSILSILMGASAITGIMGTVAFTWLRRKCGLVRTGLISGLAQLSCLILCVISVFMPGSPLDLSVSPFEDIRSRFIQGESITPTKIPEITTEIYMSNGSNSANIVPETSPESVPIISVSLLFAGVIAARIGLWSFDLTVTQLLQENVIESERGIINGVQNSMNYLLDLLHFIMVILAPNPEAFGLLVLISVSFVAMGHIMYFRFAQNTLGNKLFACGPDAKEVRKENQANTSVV
Assay: cell-based or functional assay
Numbered stars: 1 amine (or outer) side, 2 acyl side, 3 side chain; on linkers, the order of the positions; unused ones are H or OH. Bridge positions count the residues as written; N and C are the ends. Square brackets hold non-standard residues; d marks the D form. Ends that are not written are not given here. * marks the point of attachment. Ida = iminodiacetic acid, O=C(CN(CC(=O)[*:3])[*:1])[*:2]; Lauroyl = CCCCCCCCCCCC(=O)*; Isovaleryl = CC(C)CC(=O)*; Octanoyl = CCCCCCCC(=O)*
parameter: Potency EC50 (nM), ferroportin-GFP internalization/degradation

binder	unit	observed_value
[Ida]THFPCIKFEPRSKGWVCK(Octanoyl)-NH2 (not fully specified (bridges); cysteine pairing not given here) [[Ida]-THFPCIKFEPRSKGWVC-K(octanoic acid)-NH2]	nM	129
Isovaleryl-DTHFPCIKFEPRSKLWVCK-NH2 (disulfide 6-18 (inferred)) [Isovaleric acid-DTHFPCIKFEPRSKLWVCK-NH2]	nM	9
[Ida]THFPCIKFEPRSKGWVCK(Lauroyl)-NH2 (disulfide 6-18 (inferred)) [[Ida]-THFPCIKFEPRSKGWVC-K(lauric acid)-NH2]	nM	52
DTHFPCIKFKPRSKGWVC (not fully specified; N-terminal isovaleric acid; K(lauric acid) at Lys 10; C-terminal amide) [Isovaleric acid-DTHFPCIKF-K(lauric acid)-PRSKGWVC-NH2]	nM	10

[A] Isovaleryl-DTHFPCIKFEPHSKEWVCK-NH2 (not fully specified (bridges); cysteine pairing not given here) [Isovaleric acid-DTHFPCIKFEPHSKEWVCK-NH2]
[B] Isovaleryl-DTHFPCIKFEPRSKKWVCK-NH2 (disulfide 6-18 (inferred)) [Isovaleric acid-DTHFPCIKFEPRSKKWVCK-NH2]
Which record shows the lower Potency EC50 (nM), ferroportin-GFP internalization/degradation: the first, A , or the second, B ? Let me know the label of the one you choose. B
(B: 15 nM, A: 80 nM)

The origin of these recorded values is patent US20170313754A1.
